Source listed as the supplement of paper PMC6555819.

Measured PBM binding z-score accompanies every entry in the list below.
- Tested on: RARg homodimer (NR concentration 270 nM)
- assay-procedure: PBM binding z-score (relative to random genomic background probes); higher = stronger binding; sequences stand for … in GC…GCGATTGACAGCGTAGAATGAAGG

| input-sequence | PBM binding z-score |
| --- | --- |
| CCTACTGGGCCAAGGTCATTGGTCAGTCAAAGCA | 3.86 |
| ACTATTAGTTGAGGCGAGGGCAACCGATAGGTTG | 0.748 |
| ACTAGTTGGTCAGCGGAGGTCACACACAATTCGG | 4.21 |
| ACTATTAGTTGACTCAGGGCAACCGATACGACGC | 0.905 |
| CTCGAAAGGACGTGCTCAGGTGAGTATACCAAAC | 0.547 |
| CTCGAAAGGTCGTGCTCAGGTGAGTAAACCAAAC | 4.05 |
| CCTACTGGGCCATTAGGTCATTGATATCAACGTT | 2.12 |
| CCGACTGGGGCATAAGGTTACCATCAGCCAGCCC | 1 |
| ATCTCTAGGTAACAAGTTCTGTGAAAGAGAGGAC | 0.579 |
| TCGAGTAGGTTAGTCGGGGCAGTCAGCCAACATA | 0.0307 |
| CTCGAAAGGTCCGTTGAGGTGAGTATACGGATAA | 0.708 |
| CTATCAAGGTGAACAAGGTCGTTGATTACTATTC | 1.54 |

====

- Test system: VDR:RXRa (NR concentration 270 nM, RXRa partner concentration 90 nM)
- assay-procedure: PBM binding z-score (relative to random genomic background probes); higher = stronger binding; sequences stand for … in GC…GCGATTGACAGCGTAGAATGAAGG
Label scheme for PBM binding z-score: lower than 2 is F, 2 and above is T.

| input-sequence | tested-on | discrete-label |
| --- | --- | --- |
| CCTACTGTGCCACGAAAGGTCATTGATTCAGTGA | VDR:RXRa (NR concentration 270 nM, RXRa partner concentration 90 nM) | T |
| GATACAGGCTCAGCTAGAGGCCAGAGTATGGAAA | VDR:RXRa (NR concentration 270 nM, RXRa partner concentration 90 nM) | F |
| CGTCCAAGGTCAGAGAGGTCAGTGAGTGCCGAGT | VDR:RXRa (NR concentration 270 nM, RXRa partner concentration 90 nM) | T |
| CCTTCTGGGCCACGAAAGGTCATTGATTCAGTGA | VDR:RXRa (NR concentration 270 nM, RXRa partner concentration 90 nM) | T |
| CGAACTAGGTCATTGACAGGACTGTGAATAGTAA | VDR:RXRa (NR concentration 270 nM, RXRa partner concentration 90 nM) | F |

====

- System: RARg homodimer (NR concentration 270 nM)
- assay-procedure: PBM binding z-score (relative to random genomic background probes); higher = stronger binding; sequences stand for … in GC…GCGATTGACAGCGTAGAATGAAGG
Label scheme for PBM binding z-score: lower than 1 is no (0), 1 and above is yes (1).

| input-sequence | discrete-label |
| --- | --- |
| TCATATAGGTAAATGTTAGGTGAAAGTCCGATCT | no (0) |
| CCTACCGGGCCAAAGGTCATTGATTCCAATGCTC | yes (1) |
| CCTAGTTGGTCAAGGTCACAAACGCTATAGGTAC | yes (1) |
| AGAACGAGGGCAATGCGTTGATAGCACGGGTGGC | yes (1) |
| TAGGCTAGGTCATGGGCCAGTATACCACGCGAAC | yes (1) |
| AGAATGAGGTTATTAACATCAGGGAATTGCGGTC | no (0) |
| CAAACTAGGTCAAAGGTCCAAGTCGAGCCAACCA | yes (1) |
| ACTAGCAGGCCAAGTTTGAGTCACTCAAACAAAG | no (0) |
| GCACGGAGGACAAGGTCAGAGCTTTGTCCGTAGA | yes (1) |
| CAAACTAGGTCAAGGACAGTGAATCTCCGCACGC | yes (1) |
| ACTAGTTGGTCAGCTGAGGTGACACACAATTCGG | yes (1) |
| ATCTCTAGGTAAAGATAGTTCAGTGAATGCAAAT | no (0) |
| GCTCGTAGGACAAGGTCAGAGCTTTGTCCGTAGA | yes (1) |
| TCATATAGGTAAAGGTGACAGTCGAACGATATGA | yes (1) |
| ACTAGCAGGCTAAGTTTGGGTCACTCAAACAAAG | no (0) |
| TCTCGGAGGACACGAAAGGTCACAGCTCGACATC | yes (1) |
| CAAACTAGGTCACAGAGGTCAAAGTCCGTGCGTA | yes (1) |
| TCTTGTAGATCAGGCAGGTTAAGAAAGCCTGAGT | no (0) |
| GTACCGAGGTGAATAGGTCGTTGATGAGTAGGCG | yes (1) |
| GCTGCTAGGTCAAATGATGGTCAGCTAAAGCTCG | yes (1) |
| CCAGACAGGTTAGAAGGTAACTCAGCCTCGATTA | no (0) |
| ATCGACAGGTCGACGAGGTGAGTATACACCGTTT | yes (1) |
| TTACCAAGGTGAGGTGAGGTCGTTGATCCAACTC | yes (1) |
| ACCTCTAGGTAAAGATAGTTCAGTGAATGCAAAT | no (0) |
| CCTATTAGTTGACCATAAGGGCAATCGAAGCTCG | yes (1) |
| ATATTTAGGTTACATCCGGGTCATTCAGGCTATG | yes (1) |

====

- System: RARb homodimer (NR concentration 270 nM)
- assay-procedure: PBM binding z-score (relative to random genomic background probes); higher = stronger binding; sequences stand for … in GC…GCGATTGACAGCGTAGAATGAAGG
Measured PBM binding z-score accompanies every entry in the list below.
value-type: PBM binding z-score

| input-sequence | result-value |
| --- | --- |
| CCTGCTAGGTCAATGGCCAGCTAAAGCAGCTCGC | 2.64 |
| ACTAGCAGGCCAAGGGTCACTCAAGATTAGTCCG | 3.86 |
| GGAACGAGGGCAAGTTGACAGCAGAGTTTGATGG | 1.76 |
| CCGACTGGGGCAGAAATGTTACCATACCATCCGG | -0.118 |
| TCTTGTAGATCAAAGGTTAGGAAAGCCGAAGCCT | 0.876 |
| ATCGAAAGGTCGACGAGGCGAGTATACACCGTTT | 2.61 |
| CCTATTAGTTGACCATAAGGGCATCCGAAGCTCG | 1.78 |
| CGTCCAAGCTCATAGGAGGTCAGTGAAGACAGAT | 2.8 |
| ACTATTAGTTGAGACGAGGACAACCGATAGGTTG | 0.638 |
| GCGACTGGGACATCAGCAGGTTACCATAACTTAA | 0.428 |
| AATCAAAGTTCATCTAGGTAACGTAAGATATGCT | 3.95 |
| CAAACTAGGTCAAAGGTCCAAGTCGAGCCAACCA | 3.54 |
| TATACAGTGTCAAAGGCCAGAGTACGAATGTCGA | 1.59 |
| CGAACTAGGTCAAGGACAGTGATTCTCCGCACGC | 3.36 |
| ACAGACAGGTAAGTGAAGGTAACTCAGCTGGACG | -0.171 |
| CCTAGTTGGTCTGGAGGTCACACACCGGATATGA | 4.22 |
| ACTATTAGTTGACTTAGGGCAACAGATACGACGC | 0.775 |
| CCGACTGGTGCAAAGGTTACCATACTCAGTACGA | 2.08 |
| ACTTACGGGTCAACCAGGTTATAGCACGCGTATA | 3.43 |
| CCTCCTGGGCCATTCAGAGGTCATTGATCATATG | 4.15 |
| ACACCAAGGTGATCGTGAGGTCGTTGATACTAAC | 1.69 |
| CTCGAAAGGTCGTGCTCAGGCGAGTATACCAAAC | 2.65 |
| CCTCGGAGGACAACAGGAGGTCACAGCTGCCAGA | 4.25 |
| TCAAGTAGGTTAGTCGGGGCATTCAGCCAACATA | 0.846 |
| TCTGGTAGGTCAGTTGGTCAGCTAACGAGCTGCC | 2.92 |
| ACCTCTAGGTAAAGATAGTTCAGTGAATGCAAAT | 0.723 |

====

- System: PPARg homodimer (NR concentration 180 nM)
- assay-procedure: PBM binding z-score (relative to random genomic background probes); higher = stronger binding; sequences stand for … in GC…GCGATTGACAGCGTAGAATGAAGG
Label scheme for PBM binding z-score: lower than 0.4 is 0.0, 0.4 and above is 1.0.

| input-sequence | discrete-label |
| --- | --- |
| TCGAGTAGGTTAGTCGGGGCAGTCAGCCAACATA | 0.0 |
| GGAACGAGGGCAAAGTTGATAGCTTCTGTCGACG | 1.0 |
| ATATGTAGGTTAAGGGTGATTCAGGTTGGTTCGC | 1.0 |
| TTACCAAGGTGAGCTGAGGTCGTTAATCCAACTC | 0.0 |
| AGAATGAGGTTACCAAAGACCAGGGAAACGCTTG | 0.0 |
| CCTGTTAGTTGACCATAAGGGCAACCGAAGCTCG | 1.0 |
| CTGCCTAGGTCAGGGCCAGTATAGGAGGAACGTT | 1.0 |
| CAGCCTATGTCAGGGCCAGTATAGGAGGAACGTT | 0.0 |
| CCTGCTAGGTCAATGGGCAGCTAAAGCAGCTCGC | 0.0 |
| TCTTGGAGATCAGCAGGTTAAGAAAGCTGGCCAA | 0.0 |
| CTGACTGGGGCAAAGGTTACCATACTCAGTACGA | 1.0 |
| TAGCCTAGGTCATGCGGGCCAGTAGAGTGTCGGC | 0.0 |
| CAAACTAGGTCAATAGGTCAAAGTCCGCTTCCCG | 1.0 |
| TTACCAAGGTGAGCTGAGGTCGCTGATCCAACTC | 0.0 |
| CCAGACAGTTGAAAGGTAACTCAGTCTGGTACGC | 1.0 |
| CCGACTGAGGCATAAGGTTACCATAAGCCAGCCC | 0.0 |
| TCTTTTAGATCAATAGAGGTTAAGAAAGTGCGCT | 1.0 |
| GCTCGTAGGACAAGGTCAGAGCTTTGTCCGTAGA | 1.0 |
| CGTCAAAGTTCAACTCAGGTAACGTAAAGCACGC | 1.0 |
| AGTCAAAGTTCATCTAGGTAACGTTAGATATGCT | 1.0 |
| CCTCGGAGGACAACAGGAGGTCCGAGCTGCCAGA | 0.0 |
| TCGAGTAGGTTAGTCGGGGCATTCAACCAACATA | 0.0 |
| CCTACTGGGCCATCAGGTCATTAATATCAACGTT | 1.0 |
| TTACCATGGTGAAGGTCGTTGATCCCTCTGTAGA | 0.0 |
| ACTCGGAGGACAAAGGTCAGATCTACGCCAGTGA | 1.0 |
| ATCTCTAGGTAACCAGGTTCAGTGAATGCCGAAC | 1.0 |
